// reported pIC50 per item
Target: cPLA2 (Homo sapiens, UniProt P47712)
Sequence (P47712 1-749): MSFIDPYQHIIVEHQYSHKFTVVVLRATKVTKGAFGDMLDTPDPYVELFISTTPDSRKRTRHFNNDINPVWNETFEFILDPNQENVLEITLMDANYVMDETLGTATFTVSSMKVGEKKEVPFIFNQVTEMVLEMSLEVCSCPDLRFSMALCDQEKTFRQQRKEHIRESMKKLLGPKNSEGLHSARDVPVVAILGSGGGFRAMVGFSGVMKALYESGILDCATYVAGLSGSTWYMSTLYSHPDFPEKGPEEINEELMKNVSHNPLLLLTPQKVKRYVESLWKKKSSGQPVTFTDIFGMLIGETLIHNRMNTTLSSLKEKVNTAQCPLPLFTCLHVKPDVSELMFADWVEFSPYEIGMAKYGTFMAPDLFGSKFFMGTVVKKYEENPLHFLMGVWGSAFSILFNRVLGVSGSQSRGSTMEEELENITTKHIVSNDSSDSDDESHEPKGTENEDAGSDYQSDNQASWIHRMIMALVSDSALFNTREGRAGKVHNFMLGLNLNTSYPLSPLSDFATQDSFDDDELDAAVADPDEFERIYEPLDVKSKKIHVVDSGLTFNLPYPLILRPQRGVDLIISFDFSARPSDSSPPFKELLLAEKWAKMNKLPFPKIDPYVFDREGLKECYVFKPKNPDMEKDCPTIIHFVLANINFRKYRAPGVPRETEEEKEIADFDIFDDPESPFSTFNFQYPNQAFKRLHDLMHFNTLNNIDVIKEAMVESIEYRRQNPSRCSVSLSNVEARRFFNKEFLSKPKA
Assay: Coumarine assay (7-hydroxycoumarinyl 6-heptenoate hydrolysis)
Assay type: biochemical
pIC50: −log10 of the molar value.
readout: pIC50

• CCC(C)(C)c1ccc(CCCCn2c(C(=O)Nc3cc(C(=O)O)ccc3OC)cc3cc(OCc4ccccc4)ccc32)c(C(C)(C)CC)c1 = 5.22
• O=C(O)c1cc(NC(=O)c2cc3cc(OCc4ccccc4)ccc3n2Cc2ccc(C(F)(F)F)cc2C(F)(F)F)ccc1Oc1ccc(Cl)nc1 = 4.55
• O=C(O)c1cc(NC(=O)c2cc3cc(OCc4ccccc4)ccc3n2Cc2ccc3ccccc3c2)cc(C(=O)O)c1 = 4.82
• CCC(C)(C)c1ccc(OCC(=O)c2c(CSCC(=O)Nc3cc(C(=O)O)ccc3OC)n(C)c3ccc(OC)cc23)c(C(C)(C)CC)c1 = 5.00
• CCn1c(CSCC(=O)Nc2cc(C(=O)O)ccc2OC)c(C(=O)COc2ccc(C(C)(C)CC)cc2C(C)(C)CC)c2cc(OCc3ccccc3)ccc21 = 4.92
• O=C(O)c1cccc(NC(=O)c2cc3cc(OCc4ccccc4)ccc3n2Cc2ccc(COc3cc(C(F)(F)F)cc(C(F)(F)F)c3)cc2)c1 = 5.42
• O=C(O)c1cccc(OCc2cc3cc(OCc4ccccc4)ccc3n2C(=O)OCc2ccccc2)c1 = 4.85
• O=C(O)c1cccc(NC(=O)c2cc3cc(OCc4ccccc4)ccc3n2Cc2ccccc2)c1 = 4.28
